From: ChEMBL document CHEMBL4715770

TARGET UNDER TEST: Receptor-type tyrosine-protein phosphatase mu (Homo sapiens, UniProt P28827)
Sequence (P28827 whole entry): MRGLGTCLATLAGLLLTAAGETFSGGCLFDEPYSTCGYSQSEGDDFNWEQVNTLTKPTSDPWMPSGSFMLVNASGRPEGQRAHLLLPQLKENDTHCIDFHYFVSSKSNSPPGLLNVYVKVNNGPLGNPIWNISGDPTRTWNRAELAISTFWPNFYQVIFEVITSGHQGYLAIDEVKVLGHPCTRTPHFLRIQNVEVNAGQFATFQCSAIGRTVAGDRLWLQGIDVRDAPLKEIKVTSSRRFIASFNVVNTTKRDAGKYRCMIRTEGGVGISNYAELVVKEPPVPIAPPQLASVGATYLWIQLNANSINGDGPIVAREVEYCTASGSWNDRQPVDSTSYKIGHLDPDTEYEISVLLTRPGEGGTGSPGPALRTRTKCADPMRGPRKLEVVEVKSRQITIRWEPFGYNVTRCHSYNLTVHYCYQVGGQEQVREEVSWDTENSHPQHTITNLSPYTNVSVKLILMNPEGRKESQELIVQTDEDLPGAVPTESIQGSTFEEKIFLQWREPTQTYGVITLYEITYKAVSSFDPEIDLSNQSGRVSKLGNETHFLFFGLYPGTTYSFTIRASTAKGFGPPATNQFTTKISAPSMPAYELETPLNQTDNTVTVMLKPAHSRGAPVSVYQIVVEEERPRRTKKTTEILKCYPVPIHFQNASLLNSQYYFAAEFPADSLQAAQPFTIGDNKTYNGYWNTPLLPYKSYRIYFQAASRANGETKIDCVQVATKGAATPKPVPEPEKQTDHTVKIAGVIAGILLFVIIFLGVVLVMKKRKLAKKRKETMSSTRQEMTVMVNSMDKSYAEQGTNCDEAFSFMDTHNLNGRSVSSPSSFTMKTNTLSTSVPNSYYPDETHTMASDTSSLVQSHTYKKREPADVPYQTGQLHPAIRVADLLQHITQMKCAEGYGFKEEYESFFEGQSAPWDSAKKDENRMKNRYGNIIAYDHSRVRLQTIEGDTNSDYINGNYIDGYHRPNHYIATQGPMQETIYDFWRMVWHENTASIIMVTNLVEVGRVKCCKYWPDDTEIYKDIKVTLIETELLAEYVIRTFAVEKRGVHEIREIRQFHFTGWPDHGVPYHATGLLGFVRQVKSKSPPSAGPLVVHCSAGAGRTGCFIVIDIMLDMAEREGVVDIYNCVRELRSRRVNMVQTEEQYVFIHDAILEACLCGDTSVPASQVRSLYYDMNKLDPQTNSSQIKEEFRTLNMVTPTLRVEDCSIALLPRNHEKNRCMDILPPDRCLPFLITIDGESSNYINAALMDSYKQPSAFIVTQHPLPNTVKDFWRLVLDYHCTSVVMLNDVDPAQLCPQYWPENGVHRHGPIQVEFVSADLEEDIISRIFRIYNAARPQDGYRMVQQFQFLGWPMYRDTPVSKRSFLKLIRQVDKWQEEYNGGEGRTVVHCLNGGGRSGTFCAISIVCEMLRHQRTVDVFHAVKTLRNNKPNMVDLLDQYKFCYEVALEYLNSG
ASSAY SUMMARY: Inhibition of His-tagged PTPmu (unknown origin) expressed in Escherichia coli BL21 cells using para-nitrophenyl phosphate as substrate incubated for 5 to 10 mins by microplate reader based spectrophotometric analysis
MEASURED PARAMETER: IC50

Sample answers from the record:
O=C(Nc1ccc(-n2ccnc2)cc1)C(c1ccccc1)S(=O)(=O)O (centres undefined) :: > 100 µM
O=C(Nc1cc(C(F)(F)F)cc(C(F)(F)F)c1)C(c1ccccc1)S(=O)(=O)O (centres undefined) :: > 200 µM
Cc1c(Br)cc(NC(=O)C(c2ccccc2)S(=O)(=O)O)cc1Br (centres undefined) :: > 200 µM

Query molecule follows.
INPUT: IC50 for O=C(Nc1nc2ccc([N+](=O)[O-])cc2s1)C(c1ccccc1)S(=O)(=O)O (centres undefined) ?
OUTPUT: > 100 µM

* * *

TARGET UNDER TEST: Low molecular weight phosphotyrosine protein phosphatase (Homo sapiens, UniProt P24666)
Sequence (P24666 whole entry): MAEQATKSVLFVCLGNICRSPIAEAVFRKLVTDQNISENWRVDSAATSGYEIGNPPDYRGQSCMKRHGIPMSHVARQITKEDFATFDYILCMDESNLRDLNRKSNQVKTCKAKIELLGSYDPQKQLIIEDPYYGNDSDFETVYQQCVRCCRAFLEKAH
ASSAY SUMMARY: Inhibition of His-tagged LMW-PTP isoform A (unknown origin) expressed in Escherichia coli BL21 cells using para-nitrophenyl phosphate as substrate incubated for 5 to 10 mins by microplate reader based spectrophotometric analysis
MEASURED PARAMETER: IC50

O=C(Nc1nc2ccccc2s1)C(c1ccccc1Cl)S(=O)(=O)O (stereo unspecified) :: > 200 µM
O=C(Nc1nc2ccccc2s1)C(c1ccc(Br)cc1)S(=O)(=O)O (stereo unspecified) :: 106 µM
N#Cc1cccc(C(C(=O)Nc2nc3ccccc3s2)S(=O)(=O)O)c1 (stereo unspecified) :: > 200 µM
Cc1cccc(C(C(=O)Nc2nc3ccccc3s2)S(=O)(=O)O)c1 (stereo unspecified) :: > 200 µM
CCOC(=O)c1ccc2nc(NC(=O)C(c3ccccc3)S(=O)(=O)O)sc2c1 (stereo unspecified) :: 3.1 µM

Query compound follows.
INPUT: Provide the documented IC50 with Low molecular weight phosphotyrosine protein phosphatase (Homo sapiens, UniProt P24666) as the system for CCCNC(=O)C(c1ccccc1)S(=O)(=O)O (stereo unspecified)
OUTPUT: > 200 µM

* * *

TARGET UNDER TEST: Tyrosine-protein phosphatase non-receptor type 7 (Homo sapiens)
Sequence (P35236 whole entry): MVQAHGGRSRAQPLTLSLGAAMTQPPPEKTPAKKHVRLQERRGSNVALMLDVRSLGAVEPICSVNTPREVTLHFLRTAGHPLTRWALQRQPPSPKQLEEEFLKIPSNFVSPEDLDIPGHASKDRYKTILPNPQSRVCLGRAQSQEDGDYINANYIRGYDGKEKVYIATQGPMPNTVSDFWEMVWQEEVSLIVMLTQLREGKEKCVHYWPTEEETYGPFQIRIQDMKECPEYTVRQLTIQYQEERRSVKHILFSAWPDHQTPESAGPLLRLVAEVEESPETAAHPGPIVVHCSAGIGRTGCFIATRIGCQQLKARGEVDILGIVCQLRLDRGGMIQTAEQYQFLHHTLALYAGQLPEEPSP
pIC50: −log10 of the molar value.
MEASURED PARAMETER: pIC50

O=C(Nc1cc(C(F)(F)F)cc(C(F)(F)F)c1)C(c1ccccc1)S(=O)(=O)O (stereo not given) :: 4.03
O=C(Nc1nc2ccc([N+](=O)[O-])cc2s1)C(c1ccccc1)S(=O)(=O)O (stereo not given) :: < 4.00
O=C(Nc1ccc(OCc2ccccc2)c(Cl)c1)C(c1ccccc1)S(=O)(=O)O (stereo not given) :: < 3.70
O=C(Nc1ccc(-n2ccnc2)cc1)C(c1ccccc1)S(=O)(=O)O (stereo not given) :: < 4.00

Query compound follows.
INPUT: pIC50 for Cc1c(Br)cc(NC(=O)C(c2ccccc2)S(=O)(=O)O)cc1Br (stereo not given) ?
OUTPUT: < 3.70
